# Tested on: E. coli GN5482*
# Test Protocol: in vitro antibacterial activity, agar plate dilution method
# Type: cell-based
# Settings: Escherichia coli, GN5482, 16 h
Result Type: log10 MIC (log10 of the value in µg/mL)
For clarity, the numbers are log10 values of MIC expressed in µg/mL.

[
  {
    "Molecule": "C=C(O/N=C(\\C(=O)N[C@@H]1C(=O)N2C(C(=O)O)=C(CSc3nnc(-c4ccc(O)c(O)c4)s3)CS[C@H]12)c1csc(N)n1)C(=O)O",
    "Target System": "E. coli GN5482*",
    "log10 MIC": -0.70
  }
]

Entry under review: `C=C(O/N=C(\C(=O)N[C@@H]1C(=O)N2C(C(=O)O)=C(CSc3ncc(-c4ccc(O)c(O)c4)o3)CS[C@H]12)c1csc(N)n1)C(=O)O` . Reported log10 MIC?
0.19

Entry under review: `C=C(O/N=C(\C(=O)N[C@@H]1C(=O)N2C(C(=O)O)=C(CSc3nc(-c4ccc(OC(C)=O)c(OC(C)=O)c4)c(CC(=O)O)s3)CS[C@H]12)c1csc(N)n1)C(=O)O` . Reported log10 MIC?
-0.11

Entry under review: CO/N=C(\C(=O)N[C@@H]1C(=O)N2C(C(=O)O)=C(COC(C)=O)CS[C@H]12)c1csc(N)n1 [Cefotaxime, reference compound] . Reported log10 MIC?
-0.41

Entry under review: `C=C(O/N=C(\C(=O)N[C@@H]1C(=O)N2C(C(=O)[O-])=C(C[n+]3cccc(C(N)=O)c3)CS[C@H]12)c1csc(N)n1)C(=O)O` . Reported log10 MIC?
-0.70

Entry under review: `C=C(O/N=C(\C(=O)N[C@@H]1C(=O)N2C(C(=O)O)=C(CSc3nnnn3C)CS[C@H]12)c1csc(N)n1)C(=O)O` . Reported log10 MIC?
-0.41

Entry under review: `C=C(O/N=C(\C(=O)N[C@@H]1C(=O)N2C(C(=O)O)=C(CSc3nnc(-c4ccc(O)c(O)c4)o3)CS[C@H]12)c1csc(N)n1)C(=O)O` . Reported log10 MIC?
-1.00

Entry under review: `C=C(O/N=C(\C(=O)N[C@@H]1C(=O)N2C(C(=O)O)=C(CSc3nnnn3CC(=O)O)CS[C@H]12)c1csc(N)n1)C(=O)O` . Reported log10 MIC?
0.19

Entry under review: `C=C(O/N=C(\C(=O)N[C@@H]1C(=O)N2C(C(=O)[O-])=C(C[n+]3ccc(C(N)=O)cc3)CS[C@H]12)c1csc(N)n1)C(=O)O` . Reported log10 MIC?
-0.41

Entry under review: `C=C(O/N=C(\C(=O)N[C@@H]1C(=O)N2C(C(=O)O)=C(CSc3nnc(C)s3)CS[C@H]12)c1csc(N)n1)C(=O)O` . Reported log10 MIC?
-0.41

Entry under review: `C=C(O/N=C(\C(=O)N[C@@H]1C(=O)N2C(C(=O)[O-])=C(C[n+]3ccc(C(=O)O)cc3)CS[C@H]12)c1csc(N)n1)C(=O)O` . Reported log10 MIC?
0.19

Entry under review: `C=C(O/N=C(\C(=O)N[C@@H]1C(=O)N2C(C(=O)[O-])=C(C[n+]3cccc4c3CCC4)CS[C@H]12)c1csc(N)n1)C(=O)O` . Reported log10 MIC?
-1.00

These entries and their values trace back to patent US5084453A.
